All figures here come from the supplement of paper PMC6757056.

B1: library; a variant is named by its letters at N, in order (parent)
chain: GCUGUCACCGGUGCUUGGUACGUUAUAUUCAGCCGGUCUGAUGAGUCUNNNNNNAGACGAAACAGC

Variants of: B1
Test: normalized RNA/DNA level with ligand (relative to sTRSVctl = 100) (log10 (% of sTRSVctl)); HEK293T overexpressing SLC46A1; ligand concentration (+) RNA-Seq: 6 mM; higher = less ribozyme self-cleavage, higher mRNA level
Conditions: with (6R,S)-folinic acid; ligand present: yes
Answer class 0 if normalized RNA/DNA level with ligand (log10) is under 2, and class 1 if it is 2 or more.

GCCCGC: class 1
UCCGUC: class 1
UGAGAG: class 0

normalized RNA/DNA level with ligand (log10) >= 2 for UGCUCU ?
class 1

normalized RNA/DNA level with ligand (log10) >= 2 for AUAGAG ?
class 0
